ASSAY METHOD TEXT: Kinetic solubility of the compound in PBS at pH 7.4
Starred links: 1 amine or outer side, 2 acyl side, 3 side chain; linkers in the order of their positions; H or OH if unused. Non-standard residues stand in square brackets, D forms with d. Residues, ends and D or L forms follow the SMILES beside them. Ile(ψThz) = CC[C@H](C)[C@H](N[*:1])c1nc(C(=O)[*:2])cs1; ValThz = CC(C)[C@H](N[*:1])c1nc(C(=O)[*:2])cs1; NMeF = CN[C@@H](Cc1ccccc1)C(=O)O
Cut-off 100 µM on solubility kinetic, inclusive. At or above means y; below means n.

1. CC[C@H](C)[C@@H]1NC(=O)[C@@H]2CCCN2C(=O)[C@H]([C@@H](C)O)NC(=O)[C@@H]2CCCN2C(=O)[C@H](Cc2ccccc2)NC(=O)[C@H](C)NC(=O)c2csc1n2 (cyclo(AFPTP[Ile(ψThz)])); y
2. CC(C)[C@@H]1NC(=O)c2csc(n2)[C@H](C(C)C)NC(=O)[C@@H]2CCCN2C(=O)[C@H](C(C)C)NC(=O)[C@@H]2CCCN2C(=O)[C@H](Cc2ccccc2)NC1=O (cyclo(FPVP[ValThz]V)); y
3. CC[C@H](C)[C@@H]1NC(=O)[C@@H]2CCCN2C(=O)[C@H](C(C)C)NC(=O)[C@@H]2CCCN2C(=O)[C@H](Cc2ccccc2)N(C)C(=O)[C@H](C)NC(=O)c2csc1n2 (cyclo(A[NMeF]PVP[Ile(ψThz)])); y
4. CC[C@H](C)[C@@H]1NC(=O)[C@@H]2CCCN2C(=O)[C@H](C(C)C)NC(=O)[C@@H]2CCCN2C(=O)[C@H](Cc2ccccc2)NC(=O)[C@H](C)NC(=O)c2csc1n2 (cyclo(AFPVP[Ile(ψThz)])); y
5. CC[C@H](C)[C@@H]1NC(=O)[C@@H]2CCCN2C(=O)[C@H](CC(C)C)NC(=O)[C@@H]2CCCN2C(=O)[C@H](Cc2ccccc2)NC(=O)[C@H](C)NC(=O)c2csc1n2 (cyclo(AFPLP[Ile(ψThz)])); y

Next compound, please.
Threshold query (solubility kinetic >= 100 µM) on CC[C@H](C)[C@@H]1NC(=O)c2csc(n2)[C@H]([C@@H](C)CC)NC(=O)[C@@H]2CCCN2C(=O)[C@H]([C@@H](C)CC)NC(=O)[C@@H]2CCCN2C(=O)[C@H](Cc2ccccc2)NC1=O (cyclo(FPIP[Ile(ψThz)]I)) n
